# Lookup of reported MIC keyed by entry
- Test system: S. aureus ATCC 25923
QUANTITY KIND: MIC (mg/L)

{"COMPOUND STRUCTURE STRING": "CC(C)NC(=N)c1ccc2[nH]c(-c3ccc(OCc4cn(-c5ccccc5)nn4)cc3)nc2c1", "QUANTITY KIND": "MIC", "VALUE MEASURED": 128}
{"COMPOUND STRUCTURE STRING": "CC(C)NC(=N)c1ccc2[nH]c(-c3ccc(OCc4cn(Cc5ccccc5)nn4)cc3)nc2c1", "QUANTITY KIND": "MIC", "VALUE MEASURED": 64}
{"COMPOUND STRUCTURE STRING": "COc1ccc(-n2cc(COc3ccc(-c4nc5cc(C6=NCCN6)ccc5[nH]4)cc3)nn2)cc1.Cl.Cl", "QUANTITY KIND": "MIC", "VALUE MEASURED": 128}
{"COMPOUND STRUCTURE STRING": "c1ccc(Cn2cc(COc3ccc(-c4nc5cc(C6=NCCN6)ccc5[nH]4)cc3)nn2)cc1", "QUANTITY KIND": "MIC", "VALUE MEASURED": 64}
